- Target: Bromodomain-containing protein 7 (Homo sapiens, UniProt Q9NPI1)
- Sequence (Q9NPI1 whole entry): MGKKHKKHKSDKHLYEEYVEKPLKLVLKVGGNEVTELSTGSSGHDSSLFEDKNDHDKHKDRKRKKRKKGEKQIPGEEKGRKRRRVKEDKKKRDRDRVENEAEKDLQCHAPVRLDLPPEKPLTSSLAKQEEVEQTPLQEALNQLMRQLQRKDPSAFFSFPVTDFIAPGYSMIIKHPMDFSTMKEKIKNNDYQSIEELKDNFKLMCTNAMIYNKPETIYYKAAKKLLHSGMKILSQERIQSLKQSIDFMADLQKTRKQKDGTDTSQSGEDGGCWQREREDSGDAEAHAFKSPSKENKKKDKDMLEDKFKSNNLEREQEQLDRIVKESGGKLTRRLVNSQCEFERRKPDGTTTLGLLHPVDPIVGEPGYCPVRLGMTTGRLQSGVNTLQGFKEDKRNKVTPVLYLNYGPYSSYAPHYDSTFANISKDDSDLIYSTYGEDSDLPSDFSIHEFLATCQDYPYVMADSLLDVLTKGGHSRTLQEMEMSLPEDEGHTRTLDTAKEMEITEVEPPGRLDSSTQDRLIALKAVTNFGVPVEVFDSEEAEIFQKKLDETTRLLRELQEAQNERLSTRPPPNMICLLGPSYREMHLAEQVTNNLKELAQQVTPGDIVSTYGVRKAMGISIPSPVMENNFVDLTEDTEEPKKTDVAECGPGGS
- Method summary: Binding affinity to human BRD7 assessed as dissociation constant by isothermal titration calorimetry assay
Quantity measured: Kd (µM)
Numbers only, in µM.

I have 3 compounds here; please give me Kd for each one.
1. CCc1c(C(=O)Nc2cc(/C=C/C(=O)NO)ccc2OC)[nH]c(C)c1C(C)=O
2. COc1ccc(S(=O)(=O)n2ccc(/C=C/C(=O)NO)c2)cc1NC(=O)c1[nH]c(C)c2c1CCCCC2=O
3. Cc1[nH]c(C(=O)Nc2cc(S(=O)(=O)N3CCOCC3)ccc2OCCCCCCCC(=O)NO)c2c1C(=O)CCCC2

Output:
1. 8.5
2. 0.23
3. 0.125
